These data points were gathered from ChEMBL document CHEMBL5724801.

System: U2OS
Test: Multiplex assay against U2OS
Format: toxicity, cell-based
Conditions: human, 48 h, 1 µM, compound concentration 1 uM
assay_endpoint: Population Normal (%)
Numbers only here, please. The scale is %.

Using the record for COc1ccc(CC(=O)NC(N/C(=N/C#N)Nc2cccc3ncccc23)C(C)(C)C)cc1OC (stereo not drawn) , state its measured Population Normal (%).
100

Dear colleague, please send me the reported Population Normal (%) for CC(C)C[C@H](CO)Nc1nc(S[C@@H](C)c2ccccc2)nc2nc(N)sc12 [AZD-8797] when you can.
97

Answer with the recorded Population Normal (%) of Cl.Cl.OCCOCCN1CCN(C(c2ccccc2)c2ccc(Cl)cc2)CC1 (stereo not drawn) [HYDROXYZINE HYDROCHLORIDE] only.
97
